Cited source for all entries: the supplement of paper PMC11451515

System: P12-Ichikawa
Test: cell viability relative to DMSO control; higher = less cytotoxic
Settings: HPLM + 10% dialyzed FBS; 48 h; 0.0211 µM
READOUT_KIND: cell viability (%)
Number in %, nothing else.

These solved cases illustrate the format of a correct answer.
GET /values?readout=cell viability&system=P12-Ichikawa&item= Cc1cc(Nc2cc(CN3CCOCC3)c3nc(C)c(Cc4ccc(Cl)cc4F)n3n2)[nH]n1
116

Same for ClC1=CC\2=C(OC3=C(C=CC=C3)\N=C2N4CCNCC4)C=C1
103

// query: CN(C)CC[C@H](c1ccc(Cl)cc1)c1ccccn1
84.8

More entries:
Record lookup: for P12-Ichikawa, what cell viability belongs to CO/C1=C/C(C)=C\[C@@H](C)[C@@H](O)[C@@H](C)C/C(C)=C\C=C/[C@H](OC)[C@@H]([C@@H](C)[C@@H](O)[C@H](C)[C@@]2(O)C[C@@H](O)[C@H](C)[C@@H](C(C)C)O2)OC1=O ?
96.3

###

System: P12-Ichikawa
Assay: cell viability relative to DMSO control; higher = less cytotoxic
Details: RPMI 5 mM glucose + 10% dialyzed FBS; 48 h; 0.00702 µM
READOUT_KIND: cell viability
// unit must come after the numeric part

// below: answered molecules
Reported cell viability for NC(=O)C1CCCc2c1[nH]c1ccc(Cl)cc21 (stereo not drawn) : what is it?
112%

Subsequent entry: CCN(CC)CCCCNc1ncc2c(n1)N(C)C(=O)N(c1c(Cl)c(OC)cc(OC)c1Cl)C2
122%

# next molecule below
Fill blank: measured cell viability of the molecule CC1(C)CNc2cc(NC(=O)c3cccnc3NCc3ccncc3)ccc21 is ____.
128%

###

A collection of molecules and their measured cell viability
Tested on: P12-Ichikawa
Test: cell viability relative to DMSO control; higher = less cytotoxic
Settings: HPLM + 10% dialyzed FBS; 48 h; 0.00234 µM
Output spec: scalar in %, unitless text.

Fill in the blank: the reported cell viability of CC(C)c1cnn2c(NCc3ccccc3)cc(NCCCCCCN)nc12 is ____.
124

---
cell viability lookup needed for CC[C@@]1(O)C(=O)OC\C2=C1\C=C\3N(CC4=C3N=C5C=CC=CC5=C4)C2=O , thanks.
120

Also C[C@@H](NC(=O)c1ncnc(N)c1Cl)c1ncc(C(=O)Nc2cc(C(F)(F)F)c(Cl)cn2)s1 , if possible.
119

Same read-out for COc1ccc([C@@H]2CC(=O)c3c(O)cc(O[C@@H]4O[C@H](CO[C@@H]5O[C@@H](C)[C@H](O)[C@@H](O)[C@H]5O)[C@@H](O)[C@H](O)[C@H]4O)cc3O2)cc1O ?
99

Next up: CN1\N=C(N)/C2=C[N]([C@@H]3O[C@H](CO[P](O)(O)=O)[C@@H](O)[C@H]3O)C4=C2C1=NC=N4
122

One more molecule: C[C@]12CC[C@H]3[C@@H](C\C=C/4C[C@@H](O)CC[C@]34C)[C@@H]1CCC2=O
110

Please give the result for CNCc1ccc(-c2[nH]c3cc(F)cc4c3c2CCNC4=O)cc1 too.
124

Here is the next molecule: O=C(Nc1ncc(SCCN2CCCC2)s1)[C@]1(c2ccc([S+](=O)([O-])C3CC3)cc2)C[C@H]1C1CCCCC1
115

Another molecule to check: O=C(O)/C=C/c1ccc(O)c(O)c1
113

###

Listed below: cell viability values for each entry.
System: NOMO1
Assay: cell viability relative to DMSO control; higher = less cytotoxic
Details: RPMI 5 mM glucose + 10% dialyzed FBS; 48 h; 46.1 µM
Return type: number; implicit unit %.

For the molecule COc1ccc([C@@H]2CC(=O)c3c(O)cc(O[C@@H]4O[C@H](CO[C@@H]5O[C@@H](C)[C@H](O)[C@@H](O)[C@H]5O)[C@@H](O)[C@H](O)[C@H]4O)cc3O2)cc1O , what cell viability is on record?
104

Entry to check: N#Cc1ccnc(Nc2cc(C3CCN(C4COC4)CC3)cc(N3CCC(F)(F)C3)n2)c1
9.87

Follow-up item: CN1\C(=C(\O)C2=C(C=CC=C2)[S+]1([O-])=O)C(=O)NC3=CC=CC=N3
35.3

Now for the molecule whose cell viability we want.
// query cell viability value for entry CC1(C)CNc2cc(NC(=O)c3cccnc3NCc3ccncc3)ccc21
115

###

Test system: NOMO1
Assay: cell viability relative to DMSO control; higher = less cytotoxic
Details: RPMI 5 mM glucose + 10% dialyzed FBS; 48 h; 1.71 µM
Documented cell viability across a set of compounds
Respond numerically; units are % and should not be typed.

// known answers, use as guide
Request the reported cell viability associated with CN1CCC[C@@H]1CCO[C@](C)(c1ccccc1)c1ccc(Cl)cc1
102

Likewise for CCN(C(=O)C/1=C(O)/C2=C(C=CC=C2Cl)N(C)C1=O)C3=CC=CC=C3 ?
53.5

What about this compound? COc1ccc2[nH]c([S+]([O-])Cc3ncc(C)c(OC)c3C)nc2c1 (stereo unspecified)
97.9

Next: O=C(c1ccc(F)c(F)c1Nc1ccc(I)cc1F)N1CC(O)([C@@H]2CCCCN2)C1
44.1

Entry to check: CN(C)CCOc1ccc(-c2nc(-c3ccncc3)c(-c3ccc4c(c3)CC/C4=N\O)[nH]2)cc1
106

Kindly consider the entry below.
GET /values?readout=cell viability&item= Cc1csc(NC(=O)c2sc3nc4c(c(C(F)(F)F)c3c2N)CCC4)n1
97.9

###

# cell viability per entry
System: SEM cells
Experiment: cell viability relative to DMSO control; higher = less cytotoxic
Conditions: RPMI 5 mM glucose + 10% dialyzed FBS; 48 h; 0.19 µM
Please give the number followed by its unit.

A selection of reference data follows.
Recorded cell viability for O=C(Oc1ccc([N+](=O)[O-])cc1)N1CCC(C(O)(c2ccc3c(c2)OCO3)c2ccc3c(c2)OCO3)CC1 , please?
94.7%

Now try COc1ncnc(N[S+](=O)([O-])c2ccc(N)cc2)c1OC .
92.6%

Please do the same for CC(=O)OCCN1C(=O)c2c(C)nc3ccc([S+](=O)([O-])N4CCOCC4)cc3c2C1=O as well.
148%

Moving on to another molecule below.
What does the data say about its cell viability? Entry: CC[C@@]1(O)C(=O)OCC/2=C1/C=C3\N(CC4=CC5=CC(=CC=C5N=C34)O)C2=O
17.9%

###

Tested on: SEM cells
Experiment: cell viability relative to DMSO control; higher = less cytotoxic
Conditions: RPMI 5 mM glucose + 10% FBS; 48 h; 0.0632 µM
The reader will find reported cell viability values listed item by item below.
Please reply with the bare figure in % and do not write the unit itself.

Example compounds with recorded cell viability:
Which measured cell viability value corresponds to CC1(N2CCC(n3c([C@@H]4CCCNC4)nc4ccccc43)CC2)CCCCCCC1 ?
121

Same lookup for CC(/C=C/C(=O)NO)=C\[C@@H](C)C(=O)c1ccc(N(C)C)cc1 , please.
115

Now the same for Cc1cnc(C(=O)O)c[n+]1[O-]
85.7

New cases:
Please give the measured cell viability for this compound: NC(=O)C1CCCc2c1[nH]c1ccc(Cl)cc21 (stereo not given)
126

Try the compound COC[C@H](c1ccc(C(F)(F)F)cc1)N1CCN(C2(C)CCN(C(=O)c3c(C)ncnc3C)CC2)C[C@H]1C.O=C(O)/C=C\C(=O)O
85.6

###

Quick reference: cell viability of the listed items.
Test system: P12-Ichikawa
Test: cell viability relative to DMSO control; higher = less cytotoxic
Conditions: HPLM + 10% dialyzed FBS; 48 h; 0.000781 µM
Value expressed in %; do not type the unit.

Sample answers from the record:
// returns reported cell viability for input COC1=CC=CC(=C1N)\C2=C\C(=O)C3=C(O2)C=CC=C3
110

And the next one, CC(O)(C#Cc1ccc2c(c1)N(c1nc(N)ncc1Cl)CC2)c1nccs1 (stereo unspecified) ?
111

Continue with OC(=O)C(CC/1=C/C(=O)NC2=CC=CC=C12)NC(=O)C3=CC=C(Cl)C=C3 (stereo unspecified)
111

Try this molecule too: Cc1csc(NC(=O)c2sc3nc4c(c(C(F)(F)F)c3c2N)CCC4)n1
88.3

// next record CO/C1=C/C(C)=C\[C@@H](C)[C@@H](O)[C@@H](C)C/C(C)=C\C=C/[C@H](OC)[C@@H]([C@@H](C)[C@@H](O)[C@H](C)[C@@]2(O)C[C@@H](O)[C@H](C)[C@@H](C(C)C)O2)OC1=O
88.2

Next molecule up: O=C(c1ccc(F)c(F)c1Nc1ccc(I)cc1F)N1CC(O)([C@@H]2CCCCN2)C1
93.9

Let us now turn to CC[C@H](C)C(=O)O[C@H]1C[C@H](O)\C=C2\C=C/[C@H](C)[C@H](CC[C@@H](O)C[C@@H](O)CC(O)=O)[C@@H]12
112

Try the molecule COc1ccc2c(c1)c(CC(=O)OCC(=O)O)c(C)n2C(=O)c1ccc(Cl)cc1
119

---
Which cell viability is reported for this molecule? Oc1cccc(-c2nc(N3CCOCC3)c3oc4ncccc4c3n2)c1
118

Then this molecule: CN(C)c1nc(Cc2ccc(NC(=O)c3ccc4ccccc4c3)cc2)nc(Cl)c1CC(=O)O
112

And for O=C\1N(N\C=C1[N]2C=CN=N2)C3=NC=NC(=C3)N4CCOCC4 ?
78.4
